tested on: sensitive green rice leafhopper (collected at Chigasaki); assay: whole plant or invertebrate; format: in vivo; details: Nephotettix cincticeps; 20 ppm; sensitive female adults; 24 hours; read-out: Mortality (%), Green Rice Leafhopper Collected at Chigasaki
attributeMeasured: mortality at 20 ppm (%)
Supply the numeric figure in %, leaving out any unit text.

Completed entries (count: 5):
compound: CC(C)(COCc1cccc(Oc2ccc(Br)cc2)c1)c1ccc(Cl)c(Cl)c1
mortality at 20 ppm [%]: 60

compound: CCOc1ccc(C(C)(C)COCc2cccc(Oc3ccccc3)c2)cc1OCC
mortality at 20 ppm [%]: 75

compound: CC(C)(COCc1cccc(Sc2ccccc2)c1)c1ccc(Cl)cc1
mortality at 20 ppm [%]: 70

compound: Cc1ccc(C(C)(C)COCc2cccc(Oc3ccccc3)c2)cc1
mortality at 20 ppm [%]: 100

compound: CC(C)(COCc1cccc(Oc2ccc(F)cc2)c1)c1ccc(Cl)c(Cl)c1
mortality at 20 ppm [%]: 100

Exercise: sensitive green rice leafhopper (collected at Chigasaki) / mortality at 20 ppm / CC(C)(COCc1cccc(Oc2cccc(Cl)c2)c1)c1ccc(Cl)c(Cl)c1 : value?
Solution: 80

Exercise: Also COc1ccc(Oc2cccc(COCC(C)(C)c3ccc(OC)cc3)c2)cc1 , if possible.
Solution: 50

Exercise: Ok, now CCOc1ccc(C(C)(C)CSCc2cccc(Oc3ccccc3)c2)cc1
Solution: 100

Exercise: Also, CCC(C)(COCc1cccc(Oc2ccc(Br)cc2)c1)c1ccc(F)cc1 (centres unmarked) please.
Solution: 90

====

As shown below, each of these compounds has a reported mortality at 20 ppm value.
tested on: tobacco cutworm; experiment: Test 2: Tobacco Cutworm Larva Dipping Test, mortality after 24 hours; type: in vivo; conditions: 20 ppm; second-instar larvae; 24 hours; read-out: Motality (%), Second-Instar Larvae
Form entry: value (%) — number only.

compound: C=COc1ccc(C(C)(C)COCc2cccc(Oc3ccccc3)c2)cc1
tgt: tobacco cutworm
mortality at 20 ppm / %: 100

compound: CCC(C)(COCc1cccc(Oc2ccc(Br)cc2)c1)c1ccc(Cl)cc1 (centres unmarked)
tgt: tobacco cutworm
mortality at 20 ppm / %: 80

Exercise: Find mortality at 20 ppm (tobacco cutworm) for the entry CC(F)(F)Oc1ccc(C(C)(C)COCc2cccc(Oc3ccccc3)c2)cc1
Solution: 80

Exercise: Same thing, different compound: CC(C)(COCc1cccc(Oc2ccccc2)c1)c1ccc(OC(F)(F)CI)cc1
Solution: 70

Exercise: Check CCOc1ccc(C(C)(C)COCc2cccc(Oc3ccccc3)c2)cc1C too.
Solution: 100

Exercise: And the next one, CCOc1ccc(Oc2cccc(COCC(C)(C)c3ccc(OCC)cc3)c2)cc1 ?
Solution: 100

Exercise: Same for CC(C)(COCc1cccc(Oc2ccccc2)c1)c1ccc2c(c1)OCO2
Solution: 60

Exercise: Try the compound CC(C)(CSCc1cccc(Oc2ccccc2)c1)c1ccc(Cl)cc1
Solution: 90

Exercise: # repeat for CC(C)Oc1ccc(C(C)(C)COCc2cccc(Oc3ccccc3)c2)cc1
Solution: 100

Exercise: # repeat for CC(C)(COCc1cccc(Oc2ccc(F)cc2)c1)c1ccc(OC(F)F)cc1
Solution: 90

Exercise: Again, but for CC(C)(COCc1cccc(Oc2ccccc2)c1)c1ccc(Cl)c(Cl)c1
Solution: 70

Exercise: What do you get for Cc1ccc(C(C)(C)COCc2cccc(Oc3ccc(F)cc3)c2)cc1 ?
Solution: 70

Exercise: Same for CC(C)(COCc1cccc(Oc2ccc(Br)cc2)c1)c1ccc(Cl)cc1
Solution: 90

Exercise: Ok, now CC(C)(COCc1cccc(Oc2ccc(F)cc2)c1)c1ccc(Cl)cc1
Solution: 100

Exercise: Queued: CC(C)(COCc1cccc(Oc2ccccc2)c1)c1ccc(OC(F)F)cc1
Solution: 100

Exercise: What do we get for CC(C)(COCc1cccc(Oc2ccccc2)c1)c1ccc(Cl)cc1 ?
Solution: 100

Exercise: And the next one, CCC(C)(COCc1cccc(Oc2ccccc2)c1)c1ccc(Cl)cc1 (centres unmarked) ?
Solution: 100

====

system: sensitive green rice leafhopper (collected at Chigasaki); assay: whole plant or invertebrate; assay type: in vivo; settings: Nephotettix cincticeps; 20 ppm; sensitive female adults; 24 hours; read-out: Mortality (%), Green Rice Leafhopper Collected at Chigasaki
Attribute: mortality at 20 ppm
Numeric only. Scale: %

substanceSmiles: COc1ccc(Oc2cccc(COCC(C)(C)c3ccccc3)c2)cc1
assayValue: 50
//
substanceSmiles: CC(C)=Cc1ccc(C(C)(C)COCc2cccc(Oc3ccccc3)c2)cc1
assayValue: 100
//
substanceSmiles: Cc1ccc(Oc2cccc(COCC(C)(C)c3ccc(Cl)cc3)c2)cc1
assayValue: 90
//
substanceSmiles: CC(C)(CSCc1cccc(Oc2ccc(F)cc2)c1)c1ccc(Cl)cc1
assayValue: 70
//
substanceSmiles: CC(C)(COCc1cccc(Oc2ccccc2)c1)c1ccc([N+](=O)[O-])cc1
assayValue: 90
//
substanceSmiles: CSc1ccc(C(C)(C)COCc2cccc(Oc3ccccc3)c2)cc1
assayValue: 40
//
substanceSmiles: C#Cc1ccc(C(C)(C)COCc2cccc(Oc3ccccc3)c2)cc1
assayValue: 60
//
substanceSmiles: CC(C)(COCc1cccc(Oc2cccc(Cl)c2)c1)c1ccc(OC(F)F)cc1
assayValue: 100

Exercise: Give its mortality at 20 ppm value. Item: CCCOc1ccc(C(C)(C)COCc2cccc(Oc3ccccc3)c2)cc1
Solution: 100

====

Tested on: tobacco cutworm
Assay: Test 1: Effect on Tobacco Cutworm (leaf immersion), mortality after 24 hours
Type: in vivo
Details: 20 ppm, second-instar larvae, 25° C
Experimental: To a mixture of 20 parts of the compound of the present invention and 20 parts of Sorpol SM-200 (registered tradename for the product supplied by Toho Chemical Industrial Co., Ltd.) was added 60 parts of xylol, and the mixture was suffciently blended. The obtained emulsifiable concentrate was diluted at a predetermined concentration with distilled water, and the obtained dilution was used. […]
In this section, each of the compounds is paired with its reported mortality at 20 ppm.
Express the result in % but write the number alone.

Solved entries (count: 5):
compound: Cc1ccc(C(C)(C)COCc2cccc(Oc3ccccc3)c2)cc1Cl
unitAbbreviation: %
mortality at 20 ppm: 100
--
compound: CC(C)(COCc1cccc(Oc2ccccc2)c1)c1ccc2c(c1)OCO2
unitAbbreviation: %
mortality at 20 ppm: 80
--
compound: CCC(C)Oc1ccc(C(C)(C)COCc2cccc(Oc3ccccc3)c2)cc1 (stereo not drawn)
unitAbbreviation: %
mortality at 20 ppm: 90
--
compound: CCOc1ccc(Oc2cccc(COCC(C)(C)c3ccc(OCC)cc3)c2)cc1
unitAbbreviation: %
mortality at 20 ppm: 100
--
compound: CCOc1ccc(C(C)(C)COCc2cccc(Oc3ccccc3)c2)cc1
unitAbbreviation: %
mortality at 20 ppm: 100

Exercise: # lookup: mortality at 20 ppm of CC(C)(CSCc1cccc(Oc2ccc(F)cc2)c1)c1ccc(Cl)cc1
Solution: 90

Exercise: Next entry: Cc1ccc(C(C)(C)COCc2cccc(Oc3ccc(F)cc3)c2)cc1
Solution: 83

Exercise: Can you handle CC(C)(COCc1cccc(Oc2ccc(F)cc2)c1)c1ccc(F)c(Cl)c1 next?
Solution: 100

Exercise: Same for CC(C)(COCc1cccc(Oc2ccc(Br)cc2)c1)c1ccc(OC(F)F)cc1
Solution: 80

Exercise: Okay, and CC(C)(COCc1cccc(Oc2ccccc2)c1)c1ccc(OC(F)(F)CI)cc1 ?
Solution: 100

Exercise: CC(C)(COCc1cccc(Oc2ccc(Br)cc2)c1)c1ccc(Cl)cc1 ?
Solution: 95

Exercise: Field entry: CC(C)(COCc1cccc(Oc2ccc(F)cc2)c1)c1ccc(F)cc1
Solution: 100

====

LD50 at 168 h values by entry
assay: Test 9: Toxicity Test (acute oral toxicity, mice); conditions: mouse, in vivo, po

molecule: CCOc1ccc(C(C)(C)COCc2cccc(Oc3ccccc3)c2)cc1OCC [Compound 93]
attributeMeasured: LD50 at 168 h
assayValue: > 500 mg/kg
//
molecule: CC(=O)c1ccc(C(C)(C)COCc2cccc(Oc3ccccc3)c2)cc1 [Compound 60]
attributeMeasured: LD50 at 168 h
assayValue: > 500 mg/kg
//
molecule: CCCCCOc1ccc(C(C)(C)COCc2cccc(Oc3ccccc3)c2)cc1 [Compound 62]
attributeMeasured: LD50 at 168 h
assayValue: > 500 mg/kg
//
molecule: CC(C)(COCc1cccc(Oc2ccccc2)c1)c1ccc(Cl)cc1 [Compound 49]
attributeMeasured: LD50 at 168 h
assayValue: > 500 mg/kg
//
molecule: CC(C)(COCc1cccc(Oc2ccc(F)cc2)c1)c1ccccc1 [Compound 28]
attributeMeasured: LD50 at 168 h
assayValue: > 500 mg/kg

Exercise: Form field: reported LD50 at 168 h of CCOc1ccc(C(C)(C)COCc2cccc(Oc3ccccc3)c2)cc1C [Compound 90]
Solution: > 500 mg/kg

Exercise: Would you kindly repeat that for CCOC(=O)c1ccc(C(C)(C)COCc2cccc(Oc3ccccc3)c2)cc1 [Compound 85] ?
Solution: > 500 mg/kg

Exercise: Another: COc1ccc(Oc2cccc(COCC(C)(C)c3ccc(Cl)c(Cl)c3)c2)cc1 [Compound 41]
Solution: > 500 mg/kg

Exercise: Moving on to the next molecule: CC(C)(COCc1cccc(Oc2ccccc2)c1)c1cc(Cl)cc(Cl)c1 [Compound 56]
Solution: > 500 mg/kg
